All figures here come from patent US4868183A.

# Test system: carrageenin-induced paw edema
# TEST METHOD NOTES: Anti-inflammatory activity: inhibition of carrageenin-induced paw edema in rats
# Assay type: in vivo, rat (male, S.D. strain)
# CONDITIONS USED: Rattus norvegicus, po; 50 mg/kg p.o., 1 h before carrageenin; paw volume 3 h after; vs control; read-out: Inhibition percent of edema
READOUT LABEL: inhibition in vivo at 50 mg/kg

Look at this compound and give its reported inhibition in vivo at 50 mg/kg. `CC(C)(C)c1cc(Nc2ccncn2)cc(C(C)(C)C)c1O`
30%

// repeat for `Cc1ccnc(Nc2cc(C(C)(C)C)c(O)c(C(C)(C)C)c2)n1` and report
36%

Same question, `Cc1sccc1Nc1cc(C(C)(C)C)c(O)c(C(C)(C)C)c1` this time
25%

Note, next up: `CC(C)(C)c1cc(Nc2nccnn2)cc(C(C)(C)C)c1O`
37%

Query `CC(C)(C)c1cc(Nc2cnccn2)cc(C(C)(C)C)c1O` next
37%

Further, for `Cc1cc(Nc2cc(C(C)(C)C)c(O)c(C(C)(C)C)c2)no1` ?
12%
